Biological target: T1, huNav1.7α + β1-β2-β3 (human, UniProt Q15858 1-1988; A5A6L6 19-218; O60939 30-215; Q2KI11 23-215)
T1 construct: also called huNav1.7-beta1-beta2-beta3; huNav1.7-β1-β2-β3
Assay: FACS, CHO Flp-In, competitor 1 µM IRR00092
Hi there, I'd appreciate the recorded MFI for every entry that follows.
Numbers only, in MFI.

[[record]]
binder = "F0103PMP495F09 (bispecific antibody, crude periplasmic extract; also called F103275B05(N93R)-50GS-F0103495F09 bivalent ISVD) EVQLVESGGGLVQPGGSLRLSCAASGSIFNINSMAWYRRAPGKQRELVASSTNGGSTNYADSVKGRFTISRDNAKRVYLQMNSLTPEDTAVYYCRALLQPSIYDISRTYWGQGTLVTVSSGGGGSGGGGSGGGGSGGGGSGGGGSGGGGSGGGGSGGGGSGGGGSGGGGSEVQLVESGGGLVQAGSSLSLSCAASGRALSTYAMGWFRQAPGKEREFVARISRSGITTYYTDSVKGRFTISRDRAKDTVYLQMNSLKPEDTAIYLCAADASTNPAGYYLRNRYDYWGQGTLVTVSSAAADYKDHDGDYKDHDIDYKDDDDKGAAHHHHHHKAAGGGGG"
reported_endpoint = "MFI"
unit_info = "MFI"
test_result = 93300


Here's the next entry for you.
Qu. Quick one: MFI of F0103PMP478E09 (bispecific antibody, Screened as crude periplasmic extract; also called F103275B05(N93R)-50GS-F0103478E09 bivalent ISVD) EVQLVESGGGLVQPGGSLRLSCAASGSIFNINSMAWYRRAPGKQRELVASSTNGGSTNYADSVKGRFTISRDNAKRVYLQMNSLTPEDTAVYYCRALLQPSIYDISRTYWGQGTLVTVSSGGGGSGGGGSGGGGSGGGGSGGGGSGGGGSGGGGSGGGGSGGGGSGGGGSEVQLVESGGGLVQAGGSLRLSCAASGRAFSTLAMGWFRQAPGKEREFVAAISRNGNNSATGDSLKGRFTISRDSTKSTVFLQMNTLKPEDTAVYYCAAISTPSASHPYVRKESYRYWGQGTQVTVSSAAADYKDHDGDYKDHDIDYKDDDDKGAAHHHHHHKAAGGGGG ?
Ans. 137000
